- System: SK-OV-3
- run.description: NCI tumour cell line growth inhibition, 48 h
The source made the active and inactive calls. Cut-off read from the data, not from the text of the source: active = GI50 up to about 1.1 µM and inactive = higher. Where a SMILES comes first, the peptide text is derived from it. [ ]: non-standard residue; d: D form. Phe(4-NO2) = N[CH](Cc1ccc([N+](=O)[O-])cc1)C(=O)O
Classes used: active, inactive

- compound: "COc1ccc(C2C(C#N)=C(O)NC(O)=C2C#N)cc1OC"
  group.label: "inactive"
- compound: "COc1cc(/C=N/N=C(\\N)NO)c([N+](=O)[O-])cc1OC"
  group.label: "inactive"
- compound: "O=C(Nc1ccc2[nH]c(C(=O)N3CC(CCl)c4c3cc([N+](=O)[O-])c3ccccc43)cc2c1)c1cc2ccccc2o1 (centres undefined)"
  group.label: "inactive"
- compound: "COC(=O)c1sc(=S)sc1SCc1cccc(CSc2sc(=S)sc2C(=O)OC)c1"
  group.label: "inactive"
- compound: "Cc1cccc(-c2cc(O)c3ccc(C)nc3n2)c1"
  group.label: "active"
- compound: "Cc1ccc(NC(=S)N/N=C(/c2ccccc2)c2ccccn2)cc1"
  group.label: "active"
- compound: "CC(NC(=O)C(Cc1ccc([N+](=O)[O-])cc1)NC(=O)C(N)CCCCN)C(=O)NC(Cc1ccc([N+](=O)[O-])cc1)C(N)=O (centres undefined) (H-K[Phe(4-NO2)]A[Phe(4-NO2)]-NH2; configuration not given here)"
  group.label: "inactive"
- compound: "O=C(O)c1ccc(/N=N/c2cc(S(=O)(=O)O)c3cccnc3c2O)cc1"
  group.label: "inactive"
- compound: "N#Cc1cc(-c2nc3c(F)cccc3s2)ccc1N"
  group.label: "inactive"

Value source: ChEMBL document CHEMBL1201862
